Give DiscoveRx β-arrestin2 Ymax (%) for every item shown.
# tested system: AGTR1 (Homo sapiens)
# Construct: host or cells: Pathunter CHO-K1 AGTR1 β-arrestin cell line (CHO-K1)
# Sequence (P30556 whole entry): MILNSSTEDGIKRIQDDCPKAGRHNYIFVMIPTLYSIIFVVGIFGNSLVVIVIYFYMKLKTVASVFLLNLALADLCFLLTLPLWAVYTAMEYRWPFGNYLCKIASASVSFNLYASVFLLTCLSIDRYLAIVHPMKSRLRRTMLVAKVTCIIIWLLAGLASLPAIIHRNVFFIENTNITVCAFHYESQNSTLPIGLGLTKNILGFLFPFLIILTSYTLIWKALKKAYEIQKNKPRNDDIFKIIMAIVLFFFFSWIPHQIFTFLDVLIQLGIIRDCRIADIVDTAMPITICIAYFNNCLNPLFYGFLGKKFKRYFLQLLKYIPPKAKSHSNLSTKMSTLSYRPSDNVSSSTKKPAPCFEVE
# assay method text: DiscoveRx β-arrestin2 recruitment assay (enzyme complementation, Pathunter CHO-K1 AGTR1 β-arrestin cell line)
# Format: cell-based
# condition context: DiscoveRx β-arrestin2 recruitment, maximal response
Write the value in % as a bare number.

Record CCC1=NC2(CCOC2)C(=O)N1Cc1ccc(-c2cc(-c3cccc(C)c3)ccc2-c2nnn[nH]2)cc1 (single isomer, unassigned) [Example 169] , field DiscoveRx β-arrestin2 Ymax (%): 50.1

Record `CCCCC(=O)N(Cc1ccc(-c2cc(-c3cc(F)cc(F)c3)ccc2-c2nn[nH]n2)cc1)C1(C(=O)O)CCCCC1` , field DiscoveRx β-arrestin2 Ymax (%): 51.1

Record `CCCCc1ncc(C(=O)NC(C)(C)COC)n1Cc1ccc(-c2cc(-c3ccccc3)ccc2-c2nn[nH]n2)cc1` , field DiscoveRx β-arrestin2 Ymax (%): 29.3
